B1: Twister Ribozyme (parent)
chain: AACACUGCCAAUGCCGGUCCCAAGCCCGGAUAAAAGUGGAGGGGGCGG

variants of: B1; test: self-cleavage, relative activity (ratio to wild type); higher = more cleavage; co-transcriptional
property-measured: self-cleavage

INSERT INTO measurements (variant_identifier, reported) VALUES
  ('U18C G45C', 0.132),
  ('A1G C5A', 0.224),
  ('C3G C21G', 0.0504),
  ('U18G A35C', 0.0813),
  ('C8G A11U', 0.691),
  ('U18G G24C', 0.117),
  ('C21U G48A', 0.131),
  ('A1C A40C', 0.186),
  ('U18A G45U', 0.272),
  ('G24A G42U', 0.091),
  ('G43C G47U', 0.13),
  ('C25G A40G', 0.129),
  ('A2C G42C', 0.0693),
  ('C19U U37C', 0.242),
  ('C26A G43A', 0.124),
  ('G38U G42C', 0.177),
  ('U12C G45A', 0.788),
  ('G7A A40G', 0.157),
  ('A10U C25U', 0.731),
  ('A35G G47A', 0.706),
  ('A22C G24U', 0.0876),
  ('C19U G38U', 0.36),
  ('G39U G42U', 0.149),
  ('C3U G45A', 0.422),
  ('A40G G48C', 0.14),
  ('G7U C46G', 0.047),
  ('A2G C8G', 0.0347),
  ('A23C C25G', 0.0881),
  ('A23C A30C', 0.116);

Just for reference, the RNAGym collection of RNA variant scans (doi:10.7554/elife.80360) is where these values come from.
